Examples of compounds with documented viability, T/C follow.
- Test system: 743489-274-T-PDC complex spheroid growth
- Experimental Details: Anticancer human tumor 743489-274-T-PDC patient-derived renal cell carcinoma cell line growth inhibition [AhR]
- Applied Conditions: second compound 0.1 µM; first compound 0.001 µM; active compounds read low
# value in %; strip the unit string

Here's what some known entries look like.
Cn1ncnc1C1c2n[nH]c(=O)c3cc(F)cc(c23)NC1c1ccc(F)cc1 (stereo unspecified) + CC(CO)NC(=O)c1cc(-c2ccc(Cl)cc2)nn(-c2cnn(C)c2)c1=O	98
Cn1ncnc1C1c2n[nH]c(=O)c3cc(F)cc(c23)NC1c1ccc(F)cc1 (stereo unspecified) + Cc1cncc(-c2nc(NCCc3c[nH]c4ccccc34)c3ncn(C(C)C)c3n2)c1	104
CC[C@@]1(O)C(=O)OCc2c1cc1n(c2=O)Cc2cc3c(CN(C)C)c(O)ccc3nc2-1 + Cc1cncc(-c2nc(NCCc3c[nH]c4ccccc34)c3ncn(C(C)C)c3n2)c1	108
CC[C@@]1(O)C(=O)OCc2c1cc1n(c2=O)Cc2cc3c(CN(C)C)c(O)ccc3nc2-1 + CC(CO)NC(=O)c1cc(-c2ccc(Cl)cc2)nn(-c2cnn(C)c2)c1=O	97.9
CC[C@@]1(O)C(=O)OCc2c1cc1n(c2=O)Cc2cc3c(CN(C)C)c(O)ccc3nc2-1 + Cc1ccccc1N=Nc1ccc(NC(=O)c2ccnn2C)c(C)c1	98.7

Provide only the value of recorded viability, T/C for Cn1ncnc1C1c2n[nH]c(=O)c3cc(F)cc(c23)NC1c1ccc(F)cc1 (stereo unspecified) + Cc1ccccc1N=Nc1ccc(NC(=O)c2ccnn2C)c(C)c1 106

====

- System: 743489-274-T-PDC complex spheroid growth
- Experimental Details: Anticancer human tumor 743489-274-T-PDC cell line growth inhibition [AhR]
- Applied Conditions: second compound 3.16 µM; first compound 3.16 µM; active compounds read low
- Text: Multicellular complex tumor spheroid response to aryl hydrocarbon receptor antagonists in combination with a variety of drugs and investigational agents in selected tumor cell lines […] Compounds. […] If the clinical Cmax for an agent had not been determined, the highest concentration tested was 10 microM (Table 1). […]
// values below are reported viability, T/C
Give the number; % is assumed, so skip it.

Nc1ccccc1NC(=O)c1ccc(CNC(=O)OCc2cccnc2)cc1 + Cc1cncc(-c2nc(NCCc3c[nH]c4ccccc34)c3ncn(C(C)C)c3n2)c1	61.3
COc1ccc([C@@H](O)c2cc(-c3ncnc4cc(N5CCOCC5)ccc34)c(F)cc2Cl)nn1 + Cc1cncc(-c2nc(NCCc3c[nH]c4ccccc34)c3ncn(C(C)C)c3n2)c1	53.8
CC(C)c1c(-c2ccccc2)nc2c(C#N)c[nH]n2c1=O + Cc1cncc(-c2nc(NCCc3c[nH]c4ccccc34)c3ncn(C(C)C)c3n2)c1	110
Nc1ccn(C2OC(CO)C(O)C2(F)F)c(=O)n1 (configuration not stated) + Cc1cncc(-c2nc(NCCc3c[nH]c4ccccc34)c3ncn(C(C)C)c3n2)c1	74.3
CC1COCCN1c1cc(C2(S(C)(=N)=O)CC2)nc(-c2ccnc3[nH]ccc23)n1 (configuration not stated) + Cc1cncc(-c2nc(NCCc3c[nH]c4ccccc34)c3ncn(C(C)C)c3n2)c1	91.4
COc1cc(C2c3cc4c(cc3C(OC3OC5COC(C)OC5C(O)C3O)C3COC(=O)C23)OCO4)cc(OC)c1O (configuration not stated) + CC(CO)NC(=O)c1cc(-c2ccc(Cl)cc2)nn(-c2cnn(C)c2)c1=O	97.7

Output viability, T/C of CC1(C)CCC(CN2CCN(c3ccc(C(=O)NS(=O)(=O)c4ccc(NCC5CCOCC5)c([N+](=O)[O-])c4)c(Oc4cnc5[nH]ccc5c4)c3)CC2)=C(c2ccc(Cl)cc2)C1 + CC(CO)NC(=O)c1cc(-c2ccc(Cl)cc2)nn(-c2cnn(C)c2)c1=O 98.9

Please report viability, T/C for the following molecule: Nc1ccccc1NC(=O)c1ccc(CNC(=O)OCc2cccnc2)cc1 + Cc1ccccc1N=Nc1ccc(NC(=O)c2ccnn2C)c(C)c1 47

Return viability, T/C for the following molecule: CC(C)c1c(-c2ccccc2)nc2c(C#N)c[nH]n2c1=O + Cc1ccccc1N=Nc1ccc(NC(=O)c2ccnn2C)c(C)c1 104

Return reported viability, T/C. Input molecule: COc1ccc([C@@H](O)c2cc(-c3ncnc4cc(N5CCOCC5)ccc34)c(F)cc2Cl)nn1 + CC(CO)NC(=O)c1cc(-c2ccc(Cl)cc2)nn(-c2cnn(C)c2)c1=O 45

Indicate its recorded viability, T/C; the molecule in question is COc1cc(C2c3cc4c(cc3C(OC3OC5COC(C)OC5C(O)C3O)C3COC(=O)C23)OCO4)cc(OC)c1O (configuration not stated) + Cc1ccccc1N=Nc1ccc(NC(=O)c2ccnn2C)c(C)c1 78.6

Name the recorded viability, T/C of the item O=C(C=Cc1cccc(S(=O)(=O)Nc2ccccc2)c1)NO + CC(CO)NC(=O)c1cc(-c2ccc(Cl)cc2)nn(-c2cnn(C)c2)c1=O in your answer. 59.2

====

- Test system: 743489-274-T-PDC complex spheroid growth
- Experimental Details: Anticancer human tumor 743489-274-T-PDC cell line growth inhibition [AhR];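 also: spheroids exposed to agents for 7 days before readout; 100% = DMSO vehicle control wells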
- Applied Conditions: second compound 10 µM; first compound 0.1 µM; active compounds read low
Listing of entries alongside the reported viability, T/C.

Read the entry O=C(C=Cc1cccc(S(=O)(=O)Nc2ccccc2)c1)NO + Cc1cncc(-c2nc(NCCc3c[nH]c4ccccc34)c3ncn(C(C)C)c3n2)c1 and write its reported viability, T/C. 118%

Let me know recorded viability, T/C for Nc1ccn(C2OC(CO)C(O)C2(F)F)c(=O)n1 (stereo not given) + CC(CO)NC(=O)c1cc(-c2ccc(Cl)cc2)nn(-c2cnn(C)c2)c1=O , thanks. 82.5%

====

- Test system: 743489-274-T-PDC complex spheroid growth
- Experimental Details: Anticancer human tumor 743489-274-T-PDC cell line growth inhibition [AhR];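 also: spheroids exposed to agents for 7 days before readout; 100% = DMSO vehicle control wells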
- Applied Conditions: second compound 1 µM; first compound 10 µM; active compounds read low
- Description: Multicellular complex tumor spheroid response to aryl hydrocarbon receptor antagonists in combination with a variety of drugs and investigational agents in selected tumor cell lines […] Compounds. […] If the clinical Cmax for an agent had not been determined, the highest concentration tested was 10 microM (Table 1). […]
Some molecules, each annotated with its measured viability, T/C.
Return type: number; implicit unit %.

Some molecules with recorded viability, T/C:
COc1cc(C2c3cc4c(cc3C(OC3OC5COC(C)OC5C(O)C3O)C3COC(=O)C23)OCO4)cc(OC)c1O (stereo not drawn) + CC(CO)NC(=O)c1cc(-c2ccc(Cl)cc2)nn(-c2cnn(C)c2)c1=O	94.9
Nc1ccccc1NC(=O)c1ccc(CNC(=O)OCc2cccnc2)cc1 + Cc1cncc(-c2nc(NCCc3c[nH]c4ccccc34)c3ncn(C(C)C)c3n2)c1	29.9

Report viability, T/C for COc1cc(Nc2ncc3c(n2)-c2ccc(Cl)cc2C(c2c(F)cccc2OC)=NC3)ccc1C(=O)O + CC(CO)NC(=O)c1cc(-c2ccc(Cl)cc2)nn(-c2cnn(C)c2)c1=O 87.3

====

- System: 743489-274-T-PDC complex spheroid growth
- Experimental Details: Anticancer human tumor 743489-274-T-PDC cell line growth inhibition [AhR];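 also: spheroids exposed to agents for 7 days before readout; 100% = DMSO vehicle control wells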
- Applied Conditions: second compound 1 µM; first compound 0.316 µM; active compounds read low
Metric Name: viability, T/C (%)
Form entry: value (%) — number only.

COc1cc(C2c3cc4c(cc3C(OC3OC5COC(C)OC5C(O)C3O)C3COC(=O)C23)OCO4)cc(OC)c1O (stereo unspecified) + Cc1cncc(-c2nc(NCCc3c[nH]c4ccccc34)c3ncn(C(C)C)c3n2)c1	80.5
Nc1ccn(C2OC(CO)C(O)C2(F)F)c(=O)n1 (stereo unspecified) + Cc1ccccc1N=Nc1ccc(NC(=O)c2ccnn2C)c(C)c1	65.6

For the compound CC1COCCN1c1cc(-c2ccnn2C)c2ccnc(-c3ccn[nH]3)c2n1 (stereo unspecified) + CC(CO)NC(=O)c1cc(-c2ccc(Cl)cc2)nn(-c2cnn(C)c2)c1=O , give its reported viability, T/C. 88.9

Quote viability, T/C reported for Nc1ncn(C2CC(O)C(CO)O2)c(=O)n1 (stereo unspecified) + Cc1ccccc1N=Nc1ccc(NC(=O)c2ccnn2C)c(C)c1 please. 101

Entry COc1cc(C2c3cc4c(cc3C(OC3OC5COC(C)OC5C(O)C3O)C3COC(=O)C23)OCO4)cc(OC)c1O (stereo unspecified) + Cc1ccccc1N=Nc1ccc(NC(=O)c2ccnn2C)c(C)c1 needs its viability, T/C filled in; supply it. 90.7

Give reported viability, T/C value for CC1COCCN1c1cc(C2(S(C)(=N)=O)CC2)nc(-c2ccnc3[nH]ccc23)n1 (stereo unspecified) + Cc1ccccc1N=Nc1ccc(NC(=O)c2ccnn2C)c(C)c1 95.8

====

- Tested on: 743489-274-T-PDC complex spheroid growth
- Experimental Details: Anticancer human tumor 743489-274-T-PDC cell line growth inhibition [AhR];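 also: spheroids exposed to agents for 7 days before readout; 100% = DMSO vehicle control wells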
- Applied Conditions: second compound 10 µM; first compound 0.316 µM; active compounds read low
Metric Name: viability, T/C (%)
Give just the number in %; leave the unit off.

Nc1ccccc1NC(=O)c1ccc(CNC(=O)OCc2cccnc2)cc1 + CC(CO)NC(=O)c1cc(-c2ccc(Cl)cc2)nn(-c2cnn(C)c2)c1=O	69.2

Assign viability, T/C to the following record: CC(C)c1c(-c2ccccc2)nc2c(C#N)c[nH]n2c1=O + Cc1cncc(-c2nc(NCCc3c[nH]c4ccccc34)c3ncn(C(C)C)c3n2)c1 133

Hello, please tell me recorded viability, T/C for this one: CC1COCCN1c1cc(C2(S(C)(=N)=O)CC2)nc(-c2ccnc3[nH]ccc23)n1 (configuration not stated) + CC(CO)NC(=O)c1cc(-c2ccc(Cl)cc2)nn(-c2cnn(C)c2)c1=O 89.9

Respond only with viability, T/C recorded for CC1COCCN1c1cc(-c2ccnn2C)c2ccnc(-c3ccn[nH]3)c2n1 (configuration not stated) + Cc1ccccc1N=Nc1ccc(NC(=O)c2ccnn2C)c(C)c1 73.5

Input Nc1ncn(C2CC(O)C(CO)O2)c(=O)n1 (configuration not stated) + CC(CO)NC(=O)c1cc(-c2ccc(Cl)cc2)nn(-c2cnn(C)c2)c1=O , output reported viability, T/C. 82.9

Kindly indicate its recorded viability, T/C. Item: COc1ccc([C@@H](O)c2cc(-c3ncnc4cc(N5CCOCC5)ccc34)c(F)cc2Cl)nn1 + Cc1ccccc1N=Nc1ccc(NC(=O)c2ccnn2C)c(C)c1 81.5

# return recorded viability, T/C for entry COc1cc(Nc2ncc3c(n2)-c2ccc(Cl)cc2C(c2c(F)cccc2OC)=NC3)ccc1C(=O)O + Cc1ccccc1N=Nc1ccc(NC(=O)c2ccnn2C)c(C)c1 76.2

// fetch viability, T/C given entry Nc1ccn(C2OC(CO)C(O)C2(F)F)c(=O)n1 (configuration not stated) + CC(CO)NC(=O)c1cc(-c2ccc(Cl)cc2)nn(-c2cnn(C)c2)c1=O 65.3

Annotate the compound O=C(C=Cc1cccc(S(=O)(=O)Nc2ccccc2)c1)NO + Cc1cncc(-c2nc(NCCc3c[nH]c4ccccc34)c3ncn(C(C)C)c3n2)c1 with its measured viability, T/C. 120

Provide only the value of recorded viability, T/C for COc1cc(C2c3cc4c(cc3C(OC3OC5COC(C)OC5C(O)C3O)C3COC(=O)C23)OCO4)cc(OC)c1O (configuration not stated) + Cc1cncc(-c2nc(NCCc3c[nH]c4ccccc34)c3ncn(C(C)C)c3n2)c1 95.6

Indicate the recorded viability, T/C value for this compound: COc1ccc([C@@H](O)c2cc(-c3ncnc4cc(N5CCOCC5)ccc34)c(F)cc2Cl)nn1 + CC(CO)NC(=O)c1cc(-c2ccc(Cl)cc2)nn(-c2cnn(C)c2)c1=O 93.8

Indicate its recorded viability, T/C; the compound in question is COc1cccc2c1C(=O)c1c(O)c3c(c(O)c1C2=O)CC(O)(C(=O)CO)CC3OC1CC(N)C(O)C(C)O1 (configuration not stated) + Cc1cncc(-c2nc(NCCc3c[nH]c4ccccc34)c3ncn(C(C)C)c3n2)c1 93.6

Quick one: give measured viability, T/C for Nc1ccn(C2OC(CO)C(O)C2(F)F)c(=O)n1 (configuration not stated) + Cc1cncc(-c2nc(NCCc3c[nH]c4ccccc34)c3ncn(C(C)C)c3n2)c1 74.2
